Tested on: LOX IMVI melanoma
Assay: NCI tumour cell line growth inhibition, 48 h; in the data active means GI50 below about 0.43 µM; inactive means the rest
Please reply with one of these outcomes: active, inactive

Below are worked cases with known answers.
O=C1/C(=C/c2ccc(C(F)(F)F)cc2)COc2ccc(O)cc21    inactive
CC1CCC(C#N)(NOC2=NCCN2)CC1 (stereo unspecified)    inactive
ClC1=C(Cl)C(Cl)=C(Cl)C1=Cc1ccc(Cl)cc1Cl    active
Cc1cc(Cl)ccc1Nc1nc(C(F)(F)F)ccc1C(=O)N/N=C/c1ccc(N(C)C)cc1    inactive
CN(C)CCC(=O)NCc1c2nc3ccccc3nc2n2ccccc12    inactive
C[C@@H]1CCC2[C@@H](C)[C@H](OC(=O)CCC(=O)NCCNC(=O)Cc3cc(=O)oc4cc(N(C)C)ccc34)O[C@@H]3O[C@]4(C)CC[C@@H]1C23OO4 (stereo partly specified)    inactive

# fetch the recorded call for `C=C(CN(CCN1CCOCC1)CC(=C)c1ccc(C(=O)Nc2ccccc2N)cc1)c1ccc(C(=O)Nc2ccccc2N)cc1` here inactive

Also, `CO[C@@]12[C@H](COC(N)=O)C3=C(C(=O)C(C)=C(N)C3=O)N1C[C@@H]1N[C@@H]12` please. inactive

Similarly, `COc1cccc2cc(N(C)c3nc(C)nc4ccsc34)ccc12` ? active
